tested on: HT29 colon; assay: NCI tumour cell line growth inhibition, 48 h
Here the recorded TGI is given for each entry.

O=C(NC1=NC2C=CC([N+](=O)[O-])=CC2S1)C(=O)Nn1c(=S)[nH]c2ccccc2c1=O (stereo not given) : > 100 µM
COc1ccc2c(c1)CC[C@@H]1[C@@H]2CC[C@]2(C)C(c3ccco3)=C(C=O)C[C@@H]12 : > 100 µM
O=c1cnn2c(n1)sc1ccc3ccccc3c12 : > 100 µM

Query string: What does the data say about its TGI? Entry: CC(C)(C)c1ccc(C(O)c2ccc(C(C)(C)C)cc2)cc1
Result string: 22.3 µM

Query string: What does the data say about its TGI? Entry: COC(=O)C1=C(CO)C2C=CC1C2 (stereo not given)
Result string: > 100 µM

====

Item-by-item account of TGI
system: UACC-257 melanoma; experiment: NCI tumour cell line growth inhibition, 48 h
Please give a number only; it is taken to be in µM.

Solved entries (count: 4):
CC(C)NC(=O)OCCN=C1c2ccccc2CCc2ccccc21 : 46
N=c1ccc2c(c1)[nH]c1c3ccccc3[nH]c3cccc2c31 : 3.52
CC(=O)OCC1OC(n2c(N)c(C#N)c(-c3ccc(C)cc3)c(C#N)c2=S)C(OC(C)=O)C(OC(C)=O)C1OC(C)=O (stereo unspecified) : 39.7
COc1cc([C@@H]2c3[nH]c4ccccc4c3C(Nc3ccc([N+](=O)[O-])cc3)[C@H]3COC(=O)N23)cc(OC)c1O (stereo partly specified) : 11.6

Alright, here's another compound for you.
Query string: What value of TGI has been recorded for this entry: CC#C[I+]c1ccccc1
Result string: 51.7

====

TGI values for the compounds below.
test system: MDA-N; test: NCI tumour cell line growth inhibition, 48 h
Where a SMILES comes first, the peptide text is derived from it. [ ]: non-standard residue; d: D form. The star is where a group is joined. β3hI = CC[CH](C)[CH](N)CC(=O)O; Octanoyl = CCCCCCCC(=O)*; Aib = CC(C)(N)C(=O)O; tBu = CC(C)(C)*

Example entries begin here.
Cc1cccc(-c2cc(=S)c3cc(N4CCCC4)ccc3[nH]2)c1 : > 100 µM
ClC1=C(Cc2ccccc2)Cc2ccc3c(c21)CCC3 : > 100 µM
Cc1ccc(-c2csc(=Nc3c(C)n(C)n(-c4ccccc4)c3=O)n2CCO)cc1 : > 100 µM
FC(F)(Sc1ccccc1)c1nc2ccccc2o1 : > 100 µM
CCC(C)C(CC(=O)N1CCCC1C(=O)NC(C(=O)NC(C(=O)NCC(=O)NC(CC(N)=O)C(=O)NC(C(=O)NC(C(=O)NC(CCCCN)C(N)=O)C(C)CC)C(C)CC)C(C)C)C(C)CC)NC(=O)C(N)C(C)CC (stereo not drawn) (H-I[β3hI]PIVGNIIK-NH2; configuration not given here) : > 50 µM

Query string: Tell me the measured TGI of CN(/N=C/C=N/N(C)C1=NCCCCN1)C1=NCCCCN1 , please.
Result string: > 100 µM

Query string: So what's the measured TGI for this one? COc1cccc(N2C(=O)CSC2c2cc(OC)c(OC)c(OC)c2)c1 (stereo not drawn)
Result string: 37.1 µM

Query string: Find the recorded TGI belonging to CC(C)(C)C(=O)C(C(c1ccccc1)N1CCOCC1)N1CCOCC1 (stereo not drawn) and report it.
Result string: > 100 µM

Query string: Consider the compound O=C1C=C(NCCc2cc(Br)c(O)c(Br)c2)C(=O)c2ncccc21 and give its measured TGI.
Result string: 1.23 µM

Query string: Item under review: CCCCCCCCCCCCCCCCCCOCC(CO[P+](=O)O)OCCCCCCCCCCCCCCCCCC (stereo not drawn) . Reported TGI?
Result string: > 50 µM

Query string: Need TGI of CC(C)NC(=O)OCc1c(COC(=O)NC(C)C)n(C)c2c1ccc1ccccc12 , thanks.
Result string: 4.22 µM

Query string: Item N#CC1=C(N)OC(c2ccc([N+](=O)[O-])cc2)C1(C#N)C#N (stereo not drawn) has what recorded TGI?
Result string: 24.6 µM

Query string: # input compound: CN(C)c1ccc(/C=C(\NC(=O)c2ccccc2)C(=O)NC(CCC(=O)O)C(=O)O)cc1 (stereo not drawn) ; wanted: its TGI
Result string: > 100 µM

Query string: Recorded TGI of O=C(NC1=NC2C=CC([N+](=O)[O-])=CC2S1)C(=O)Nn1c(=S)[nH]c2ccccc2c1=O (stereo not drawn) , please.
Result string: > 100 µM

Query string: State the recorded TGI for this entry: CN(C1=NCCO1)c1cccc2c1CCCC2
Result string: > 10 µM

Query string: Give its TGI value. Item: C[C@@]12CCC(=O)C=C1CC[C@H]1C2=CC[C@]2(C)C1CC[C@@]2(C)O (stereo partly drawn)
Result string: > 100 µM

Query string: Look up TGI for this compound: NS(=O)(=O)c1ccc(CNc2nc(-c3cccs3)nc3ccc(I)cc23)cc1
Result string: 41.9 µM

Query string: Dear colleague, I am looking for the recorded TGI of the following compound: O=C1CC2(CCNCC2)C(=O)N1N1CCCC1
Result string: > 100 µM

Query string: Fill blank: measured TGI of the compound O=C(NCCO)Nc1c(C(F)(F)F)cc(-c2ccccc2)[nH]c1=O is ____.
Result string: > 100 µM

Query string: Fill in: TGI of NCCNC(=S)S is ___
Result string: > 100 µM

Query string: Returns the measured TGI for the input compound. Input: Cc1cc(C)c2c(=O)n(CN3CCC(O)(c4ccccc4)CC3)sc2n1
Result string: 38.3 µM

Query string: I'd like to know its TGI. The compound in question is COc1cc2c(c3c1c(=O)c1ccccc1n3C)C=CC1(CCCCC1)O2
Result string: 8.08 µM

Query string: Which TGI is listed for Nc1ncnc2c1ncn2C1OC(CO)=CC1O (stereo not drawn) ?
Result string: > 37.5 µM

Query string: Using the record for OCCN(CCO)c1ccc2c(c1)Cc1ccccc1-2 , report its TGI.
Result string: > 100 µM

Query string: Give its TGI value. Item: CCCCCCCC(=O)NC(C)(C)C(=O)NC(COC(C)(C)C)C(=O)NC(CC(C)C)C(=O)NC(C)(C)C(=O)NC(COC(C)(C)C)C(=O)NC(COC(C)(C)C)C(=O)NC(CC(C)C)C(=O)NC(C)(C)C(=O)NC(COC(C)(C)C)C(=O)NC(C(=O)NC(CC(C)C)C(=O)OC)C(C)CC (stereo not drawn) (Octanoyl-[Aib]S(tBu)L[Aib]S(tBu)S(tBu)L[Aib]S(tBu)IL-OMe; configuration not given here)
Result string: > 25 µM

Query string: Name the reported TGI value associated with the compound O=C(OCC1OC(c2nn[nH]n2)C(OC(=O)c2ccccc2)C1OC(=O)c1ccccc1)c1ccccc1 (stereo not drawn)
Result string: > 100 µM

Query string: Quick check: TGI of CC1(C)CN=C(Nc2cccc(C(F)(F)F)c2)S1 ?
Result string: > 100 µM

Query string: Reported TGI for CCOC(=O)NC(NC(C)CC)(C(F)(F)F)C(F)(F)F (stereo not drawn) : what is it?
Result string: > 100 µM

====

test system: UACC-257 melanoma; test: NCI tumour cell line growth inhibition, 48 h
GI50 overview

Field: example entries. Status: answers known.
NS(=O)(=O)c1ccc(CNc2nc(-c3cccs3)nc3ccc(I)cc23)cc1 : 14 µM
COc1cc(C(=O)c2cc3c(cc2C)OCO3)cc(OC)c1OC : 91.7 µM
CCn1cnc2c(Nc3cccc(Cl)c3)nc(N[C@@H]3CCCC[C@@H]3N)nc21 : 1.57 µM

Query string: Reported GI50 for COC1=CC(c2ccc[nH]2)=N/C1=C\c1[nH]c(C)c(C(=O)CCCCC(=O)Nc2ccccc2)c1C : what is it?
Result string: 12.2 µM

Query string: Which GI50 is reported for this molecule? CCOC(=O)c1sc(Nc2ccc(Cl)cc2)nc1C
Result string: 2.11 µM

Query string: Quick check: GI50 of COc1ccc(C2=NN(C(C)=O)C(c3cn(-c4ccccc4)nc3-c3ccc(Cl)cc3)C2)cc1 (stereo unspecified) ?
Result string: > 100 µM

====

test system: CAKI-1 renal; assay: NCI tumour cell line growth inhibition, 48 h
readout-name: TGI (µM)
Respond with the bare value in µM.

CCCc1nc2c(C)cc(-c3nc4ccccc4n3C)cc2n1Cc1ccc(-c2ccccc2C(=O)O)cc1 : 61.3

Next:
Query string: Which TGI is listed for CC(CO)C1=CC(C#CCOCc2ccccc2)N(C(=O)Oc2ccccc2)c2ccccc21 (stereo not given) ?
Result string: 76.1

====

tested on: A549 NSCLC; assay: NCI tumour cell line growth inhibition, 48 h
readout-name: TGI

O=C(Nc1c(O)[nH]c(=S)[nH]c1=O)c1ccc2ccccc2n1 : > 100 µM
CC(C)[C@](O)(C(=O)OCC1CC[N+]2([O-])CC[C@@H](O)C12)[C@H](C)O (stereo partly drawn) : > 375 µM

Query string: Give recorded TGI with A549 NSCLC for the following compound: CN(/N=C/C=N/N(C)C1=NCCCCN1)C1=NCCCCN1
Result string: > 100 µM
